- systemUnderTest: LuxR (Aliivibrio fischeri)
- Sequence (P35327 whole entry): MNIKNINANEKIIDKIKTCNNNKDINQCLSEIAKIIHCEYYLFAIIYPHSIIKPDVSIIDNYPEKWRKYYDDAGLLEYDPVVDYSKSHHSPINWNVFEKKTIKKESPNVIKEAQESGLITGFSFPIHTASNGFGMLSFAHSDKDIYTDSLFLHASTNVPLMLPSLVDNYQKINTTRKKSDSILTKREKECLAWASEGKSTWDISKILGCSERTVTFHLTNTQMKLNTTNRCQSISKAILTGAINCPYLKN
- assayName: cell-based
- Format: cell-based, Vibrio fischeri
- Set-up: The initial library was also tested in Vibrio fischeri ESI 114 (Δ-LuxI); endogenous in cells; host or cells: Vibrio fischeri ESI 114 (Δ-LuxI)
- testParameters: thiolactone libraries; V. fischeri; synthetic ligands tested at 10 μM
readoutType: Inhib % (%)
Report the figure in % without appending any unit label.

Would you please look over these solved cases?
- molecule: "O=C(CCc1c[nH]c2ccccc12)NC1CCSC1=O (racemic)"
  displayUnit: "%"
  Inhib %: 68
- molecule: "O=C(Cc1ccc(Br)cc1)NC1CCSC1=O (racemic)"
  displayUnit: "%"
  Inhib %: 97

For the molecule O=C(Cc1ccccc1)N[C@H]1CCSC1=O [Compound 21E] , give its measured Inhib % value. 30

For the molecule CCCCCC(=O)N[C@H]1CCSC1=O [Compound 28E] , give its measured Inhib % value. 93

For the molecule O=C(Cc1ccccc1)NC1CCSC1=O (racemic) , give its measured Inhib % value. 34

For the molecule O=C(Cc1ccc(-c2ccccc2)cc1)NC1CCSC1=O (racemic) , give its measured Inhib % value. 98

For the molecule O=C(Cc1ccc(-c2ccccc2)cc1)N[C@H]1CCSC1=O [Compound 23E] , give its measured Inhib % value. 85

For the molecule COc1ccc(CC(=O)N[C@H]2CCSC2=O)cc1 [Compound 20E] , give its measured Inhib % value. 59

For the molecule CCCCCCCCCCCC(=O)N[C@H]1CCSC1=O [Compound 25E] , give its measured Inhib % value. 57

For the molecule COc1ccc(CC(=O)NC2CCSC2=O)cc1 (racemic) , give its measured Inhib % value. 70

For the molecule O=C(Cc1cccc([N+](=O)[O-])c1)NC1CCSC1=O (racemic) , give its measured Inhib % value. 19

For the molecule O=C(Cc1cccc([N+](=O)[O-])c1)N[C@H]1CCSC1=O [Compound 19E] , give its measured Inhib % value. 30

For the molecule CCCCCCCCCC(=O)CC(=O)NC1CCSC1=O (stereo not shown) , give its measured Inhib % value. 99

For the molecule CCCCCC(=O)CC(=O)N[C@H]1CCSC1=O [Compound 24E] , give its measured Inhib % value. 99

For the molecule CCCCCCCC(=O)N[C@H]1CCSC1=O [Compound 26E] , give its measured Inhib % value. 80

For the molecule CCCCCCC(=O)N[C@H]1CCSC1=O [Compound 27E] , give its measured Inhib % value. 78

For the molecule CCCC(=O)N[C@H]1CCSC1=O [Compound 29E] , give its measured Inhib % value. 42

For the molecule CCCC(=O)CC(=O)N[C@H]1CCSC1=O [Compound 30E] , give its measured Inhib % value. 62

For the molecule O=C(Cc1ccc(Br)cc1)N[C@H]1CCSC1=O [Compound 18E] , give its measured Inhib % value. 91

---

# Act % listing for each entry below
- systemUnderTest: LasR (Pseudomonas aeruginosa, UniProt P25084)
- Construct: expressed in transfected cells; host or cells: Escherichia coli DH5α (pJN105L+pSC11)
- Sequence (P25084 whole entry): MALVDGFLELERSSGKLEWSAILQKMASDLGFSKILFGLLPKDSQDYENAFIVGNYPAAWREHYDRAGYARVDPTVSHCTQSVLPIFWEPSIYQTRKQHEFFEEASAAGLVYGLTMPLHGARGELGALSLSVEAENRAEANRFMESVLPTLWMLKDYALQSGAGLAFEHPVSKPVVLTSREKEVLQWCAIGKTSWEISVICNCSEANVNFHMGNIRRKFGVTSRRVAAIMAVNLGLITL
- assayName: LasR agonism assay, P. aeruginosa PA01 MW1 (pUM15) YFP reporter strain
- Format: cell-based
- testParameters: thiolactone libraries; P. aeruginosa; synthetic ligands tested at 10 μM
Report the figure in % without appending any unit label.

Would you please look over these solved cases?
- compound: "O=C(Cc1ccc(-c2ccccc2)cc1)NC1CCSC1=O (racemic) [Compound 23]"
  Act %, %: 3
- compound: "O=C(Cc1cccc([N+](=O)[O-])c1)N[C@H]1CCSC1=O [Compound 19E]"
  Act %, %: 3

For the compound CCCCCC(=O)CC(=O)N[C@H]1CCSC1=O [Compound 24E] , give its measured Act % value. 3

---

- systemUnderTest: LasR (Pseudomonas aeruginosa, UniProt P25084)
- Construct: expressed in transfected cells; host or cells: Escherichia coli DH5α (pJN105L+pSC11)
- assayName: LasR antagonism assay, E. coli DH5α (pJN105L+pSC11) β-galactosidase reporter strain
- Assay type: cell-based, P. aeruginosa
- testParameters: thiolactone libraries, synthetic ligands tested at 10 μM
# Inhib % listing for each entry below
Report the figure in % without appending any unit label.

Would you please look over these solved cases?
- molecule: "O=C(Cc1ccccc1)N[C@H]1CCSC1=O [Compound 21E]"
  systemUnderTest: "LasR (Pseudomonas aeruginosa, UniProt P25084)"
  readoutType: "Inhib %"
  resultNumber: 61
- molecule: "O=C(Cc1cccc([N+](=O)[O-])c1)N[C@H]1CCSC1=O [Compound 19E]"
  systemUnderTest: "LasR (Pseudomonas aeruginosa, UniProt P25084)"
  readoutType: "Inhib %"
  resultNumber: "−3"
- molecule: "CCCCCCCCCCCC(=O)N[C@H]1CCSC1=O [Compound 25E]"
  systemUnderTest: "LasR (Pseudomonas aeruginosa, UniProt P25084)"
  readoutType: "Inhib %"
  resultNumber: "−93"

For the molecule O=C(Cc1ccccc1)NC1CCSC1=O (racemic) [Compound 21] , give its measured Inhib % value. 65

For the molecule CCCC(=O)CC(=O)N[C@H]1CCSC1=O [Compound 30E] , give its measured Inhib % value. −119
